Target: CDK9 (Homo sapiens)
Sequence (P50750 whole entry, species assumed): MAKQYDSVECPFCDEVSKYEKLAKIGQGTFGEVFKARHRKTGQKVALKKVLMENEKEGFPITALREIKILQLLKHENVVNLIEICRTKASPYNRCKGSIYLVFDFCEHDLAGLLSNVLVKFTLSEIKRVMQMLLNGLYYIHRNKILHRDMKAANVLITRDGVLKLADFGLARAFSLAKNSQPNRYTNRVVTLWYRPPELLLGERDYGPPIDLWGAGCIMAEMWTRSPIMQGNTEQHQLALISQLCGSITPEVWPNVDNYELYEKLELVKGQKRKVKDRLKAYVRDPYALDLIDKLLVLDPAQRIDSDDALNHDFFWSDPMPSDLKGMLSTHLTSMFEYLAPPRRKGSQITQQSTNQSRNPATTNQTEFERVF
Sequence (O60563 whole entry partner, species assumed): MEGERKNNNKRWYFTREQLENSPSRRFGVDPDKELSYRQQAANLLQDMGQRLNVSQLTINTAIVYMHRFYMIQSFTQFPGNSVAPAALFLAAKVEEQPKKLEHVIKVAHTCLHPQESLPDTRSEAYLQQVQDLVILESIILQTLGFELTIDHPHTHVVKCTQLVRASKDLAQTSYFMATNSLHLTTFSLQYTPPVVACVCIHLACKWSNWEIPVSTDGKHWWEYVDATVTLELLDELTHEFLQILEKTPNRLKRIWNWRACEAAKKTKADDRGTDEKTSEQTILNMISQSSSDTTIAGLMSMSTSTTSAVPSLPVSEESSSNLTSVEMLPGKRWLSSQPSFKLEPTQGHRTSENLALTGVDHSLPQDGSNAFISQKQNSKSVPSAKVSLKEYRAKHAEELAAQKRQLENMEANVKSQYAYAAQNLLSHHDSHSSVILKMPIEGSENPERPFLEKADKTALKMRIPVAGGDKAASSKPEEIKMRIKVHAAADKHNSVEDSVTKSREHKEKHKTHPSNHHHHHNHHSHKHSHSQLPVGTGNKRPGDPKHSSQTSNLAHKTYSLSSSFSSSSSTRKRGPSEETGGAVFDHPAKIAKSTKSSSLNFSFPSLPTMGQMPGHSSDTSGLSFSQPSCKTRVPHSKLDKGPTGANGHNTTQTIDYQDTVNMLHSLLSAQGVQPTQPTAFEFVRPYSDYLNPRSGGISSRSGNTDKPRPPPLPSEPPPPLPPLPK
Test: In-vitro kinase inhibitory activity, CDK9 (selectivity)
Format: biochemical
Conditions: read-out: IC50 (half maximal inhibitory concentration, nM) CDK9
Where a name gives a salt, the structure may show the parent alone.
measure name: IC50 (nM)

# count of solved cases: 2
CN(C)C(=O)c1cc2cnc(Nc3ccc(N4CCN(CCN5CCC(CN6CCN(c7ccc8c(c7)CN([C@H]7CCC(=O)NC7=O)C8=O)CC6)CC5)CC4)cn3)nc2n1C1CCCC1 [Compound 29, trihydrochloride] : 3650
CC(=O)c1c(C)c2cnc(Nc3ccc(N4CCN(CCN5CCC(CC6CCN(c7ccc8c(c7)CN(C7CCC(=O)NC7=O)C8=O)CC6)CC5)CC4)cn3)nc2n(C2CCCC2)c1=O (stereo not shown) [Compound 11, dihydrochloride] : 4440

[I] CC(=O)c1c(C)c2cnc(Nc3ccc(N4CCN(CCN5CCC(CN6CCN(c7ccc8c(c7)CN(C7CCC(=O)NC7=O)C8=O)CC6)CC5)CC4)cn3)nc2n(C2CCCC2)c1=O (single isomer, unassigned) [Compound 3]
[II] CC(=O)c1c(C)c2cnc(Nc3ccc(N4CCN(CCN5CCC(CC6CCN(c7ccc8c(c7Cl)CN(C7CCC(=O)NC7=O)C8=O)CC6)CC5)CC4)cn3)nc2n(C2CCCC2)c1=O (stereo not shown) [Compound 39, dihydrochloride]
Qu. Lower value for measured IC50? Options: I , II Let me know the label of the one you choose.
Ans. I
(I: 2850 nM, II: 5760 nM)

[A] CC(=O)c1c(C)c2cnc(Nc3ccc(N4CCN(CCN5CCC(OC6CCN(c7ccc8c(c7)CN(C7CCC(=O)NC7=O)C8=O)CC6)CC5)CC4)cn3)nc2n(C2CCCC2)c1=O (stereo not shown) [Compound 9, dihydrochloride]
[B] CC(=O)c1c(C)c2cnc(Nc3ccc(N4CCN(CCN5CCN(c6c(F)cc7c(c6F)CN(C6CCC(=O)NC6=O)C7=O)CC5)CC4)cn3)nc2n(C2CCCC2)c1=O (stereo not shown) [Compound 22]
[C] CC(=O)c1c(C)c2cnc(Nc3ccc(N4CCN(CCN5CCC(CN6CCN(c7c(F)cc8c(c7F)CN(C7CCC(=O)NC7=O)C8=O)CC6)CC5)CC4)cn3)nc2n(C2CCCC2)c1=O (stereo not shown) [Compound 34, trihydrochloride]
[D] CC(=O)c1c(C)c2cnc(Nc3ccc(N4CCN(CC(=O)N5CCC(C(=O)N6CCN(c7ccc8c(c7)CN([C@H]7CCC(=O)NC7=O)C8=O)CC6)CC5)CC4)cn3)nc2n(C2CCCC2)c1=O [Compound 7]
Qu. Let's sort these by IC50, smallest first. Go ahead? Answer format: the labels, in the requested order.
Ans. C, A, B, D
(C: 1560 nM, A: 3510 nM, B: 6220 nM, D: 9920 nM)

[1] CC(=O)c1c(C)c2cnc(Nc3ccc(N4CCN(CCN5CCN(c6ccc7c(c6)CN(C6CCC(=O)NC6=O)C7=O)CC5)CC4)cn3)nc2n(C2CCCC2)c1=O (single isomer, unassigned) [Compound 1]
[2] CC(=O)c1c(C)c2cnc(Nc3ccc(N4CCN(CCN5CCN(c6ccc7c(c6)CN(C6CCC(=O)NC6=O)C7=O)CC5)CC4)cn3)nc2n(C2CCCC2)c1=O.Cl.Cl (single isomer, unassigned) [Compound 2, dihydrochloride]
Qu. Consider entries 1 and 2 . Which has the numerically lower IC50? Write down the label of the entry you select.
Ans. 1

Cited source for all entries: patent US11485735B2
